# system: recombinant human Mcl-1 (residues 171-327) / Bim interaction (Homo sapiens (Human), UniProt Q07820)
# Sequence (Q07820 171-327): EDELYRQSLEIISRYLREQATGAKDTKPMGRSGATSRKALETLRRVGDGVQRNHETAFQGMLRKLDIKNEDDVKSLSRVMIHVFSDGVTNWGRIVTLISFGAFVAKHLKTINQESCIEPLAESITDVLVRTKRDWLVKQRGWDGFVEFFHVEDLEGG
# method summary: biochemical
# Format: binding
# protocol conditions: TR-FRET, Mcl-1(171-327) / biotin-Bim (51-76); read-out: Mcl-1 HTRF IC50
experimental readout: pIC50
Keep in mind that pIC50 stands for -log10 of concentration in molar terms.

Illustrative cases are given below, each with its answer.
>  <molecule>
C[C@@H]1[C@@H](C)C/C=C/[C@@](O)(CC(=O)O)[C@@H]2CC[C@H]2CN2C[C@@]3(CCCc4cc(Cl)ccc43)COc3ccc(cc32)C(=O)NS1(=O)=O [Example 100101]

>  <pIC50>
10.21

$$$$
>  <molecule>
C[C@@H]1[C@@H](C)C/C=C/[C@@](O)(C#CCCO)[C@@H]2CC[C@H]2CN2C[C@@]3(CCCc4cc(Cl)ccc43)COc3ccc(cc32)C(=O)NS1(=O)=O [Example 100422]

>  <pIC50>
9.76

$$$$

[Q] Entry CO[C@@]1(c2cnccn2)/C=C/C[C@H](C)[C@@H](C)S(=O)(=O)NC(=O)c2ccc3c(c2)N(C[C@@H]2CC[C@H]21)C[C@@]1(CCCc2cc(Cl)ccc21)CO3 (single isomer, unassigned) [Example 100379] has what pIC50?
[A] 10.22

[Q] What value of pIC50 has been recorded for this entry: C[C@@H]1CS(=O)(=O)NC(=O)c2ccc3c(c2)N(C[C@@H]2CC[C@H]2[C@](O)(C2SCCCS2)/C=C/[C@@H]1C)C[C@@]1(CCCc2cc(Cl)ccc21)CO3 [Example 100566]
[A] 9.85

[Q] Looking for the measured pIC50 of C[C@@H]1[C@@H](C)C/C=C/[C@@](O)(C#CCN2CCOCC2)[C@@H]2CC[C@H]2CN2C[C@@]3(CCCc4cc(Cl)ccc43)COc3ccc(cc32)C(=O)NS1(=O)=O [Example 100320] , can you help?
[A] 8.92

[Q] What does the data say about its pIC50? Entry: CO[C@@]1(CCOS(C)(=O)=O)/C=C/C[C@H](C)[C@@H](C)S(=O)(=O)NC(=O)c2ccc3c(c2)N(C[C@@H]2CC[C@H]21)C[C@@]1(CCCc2cc(Cl)ccc21)CO3 [Example 100364]
[A] 8.94

[Q] Recorded pIC50 of CC(=O)N[C@@]1(C#N)CCC[C@H](C)[C@@H](C)S(=O)(=O)NC(=O)c2ccc3c(c2)N(C[C@@H]2CC[C@H]21)C[C@@]1(CCCc2cc(Cl)ccc21)CO3 [Example 100263] , please.
[A] 8.74

[Q] Look up pIC50: C[C@@H]1[C@@H](C)C/C=C/[C@@](O)(Cc2ccncn2)[C@@H]2CC[C@H]2CN2C[C@@]3(CCCc4cc(Cl)ccc43)COc3ccc(cc32)C(=O)NS1(=O)=O [Example 100152]
[A] 9.35

[Q] Requested field: pIC50. Item: CO[C@@]1(Cc2cc(C)ccn2)/C=C/C[C@H](C)[C@@H](C)S(=O)(=O)NC(=O)c2ccc3c(c2)N(C[C@@H]2CC[C@H]21)C[C@@]1(CCCc2cc(Cl)ccc21)CO3 [Example 100560]
[A] 10.39

[Q] Bench note: what pIC50 did Cc1ncc([C@]2(O)/C=C/C[C@H](C)[C@@H](C)S(=O)(=O)NC(=O)c3ccc4c(c3)N(C[C@@H]3CC[C@H]32)C[C@@]2(CCCc3cc(Cl)ccc32)CO4)n1C (single isomer, unassigned) [Example 100559] show?
[A] 9.95

[Q] Return reported pIC50; argument: C[C@@H]1[C@@H](C)C/C=C/[C@](O)(Cc2ccnc(C#N)c2)[C@@H]2CC[C@H]2CN2C[C@@]3(CCCc4cc(Cl)ccc43)COc3ccc(cc32)C(=O)NS1(=O)=O [Example 100188]
[A] 9.06

[Q] I am curious: what pIC50 value has been reported for C[C@@H]1[C@@H](C)CCC[C@@](O)(CO)[C@@H]2CC[C@H]2CN2C[C@@]3(CCCc4cc(Cl)ccc43)COc3ccc(cc32)C(=O)NS1(=O)=O [Example 100053] ?
[A] 9.53

[Q] What value of pIC50 has been reported for the following molecule? COCC[C@@H]1[C@@H](C)C/C=C/[C@@](C=O)(OC)[C@@H]2CC[C@H]2CN2C[C@@]3(CCCc4cc(Cl)ccc43)COc3ccc(cc32)C(=O)NS1(=O)=O [Example 100571]
[A] 10.12

[Q] So what does the record say about pIC50 for C[C@@H]1[C@@H](C)CCC[C@@]2(CCO2)[C@@H]2CC[C@H]2CN2C[C@@]3(CCCc4cc(Cl)ccc43)COc3ccc(cc32)C(=O)NS1(=O)=O [Example 100228] ?
[A] 9.25

[Q] I'd like to know its pIC50. The molecule in question is C[C@@H]1[C@@H](C)C/C=C/[C@@](O)(CC(=O)N(C)CCN(C)C)[C@@H]2CC[C@H]2CN2C[C@@]3(CCCc4cc(Cl)ccc43)COc3ccc(cc32)C(=O)NS1(=O)=O [Example 100282]
[A] 9.57

[Q] Please look up its pIC50: Cc1ccc([C@@]2(O)/C=C/C[C@H](C)[C@@H](C)S(=O)(=O)NC(=O)c3ccc4c(c3)N(C[C@@H]3CC[C@H]32)C[C@@]2(CCCc3cc(Cl)ccc32)CO4)cn1 [Example 100407]
[A] 9.56

[Q] Which pIC50 reading was recorded for the molecule C[C@@H]1[C@@H](C)CCC[C@](O)([C@@H](C)C(=O)N(C)C)[C@@H]2CC[C@H]2CN2C[C@@]3(CCCc4cc(Cl)ccc43)COc3ccc(cc32)C(=O)NS1(=O)=O (single isomer, unassigned) [Example 100119] ?
[A] 8.76

[Q] For C[C@@H]1[C@@H](C)CCC[C@@](O)(CCN2CC(F)(F)C2)[C@@H]2CC[C@H]2CN2C[C@@]3(CCCc4cc(Cl)ccc43)COc3ccc(cc32)C(=O)NS1(=O)=O [Example 100093] , what is its reported pIC50?
[A] 9.54

[Q] Please report the recorded pIC50 for CO[C@]1(C=O)/C=C/C[C@H](C)[C@@H](Cc2ccccc2)S(=O)(=O)NC(=O)c2ccc3c(c2)N(C[C@@H]2CC[C@H]21)C[C@@]1(CCCc2cc(Cl)ccc21)CO3 (single isomer, unassigned) [Example 100575] .
[A] 8.89

* * *

# system: recombinant human Mcl-1 (residues 171-327) / Bim interaction (Homo sapiens (Human), UniProt Q07820)
# method summary: biochemical
# Format: binding
# protocol conditions: TR-FRET, Mcl-1(171-327) / biotin-Bim (51-76); read-out: Mcl-1 HTRF IC50
experimental readout: log10 IC50 (log10 of the value in nM)
Units before log transform: nM; reported quantity: IC50; transform: log10.

For orientation, consider the following solved cases.
>  <compound>
C[C@@H]1[C@@H](C)CCC[C@@](O)([C@@H]2CCN(C)C2=O)[C@@H]2CC[C@H]2CN2C[C@@]3(CCCc4cc(Cl)ccc43)COc3ccc(cc32)C(=O)NS1(=O)=O [Example 100202]

>  <measured result>
-0.45

$$$$
>  <compound>
COCCOC[C@]1(O)/C=C/C[C@H](C)[C@@H](C)S(=O)(=O)NC(=O)c2ccc3c(c2)N(C[C@@H]2CC[C@H]21)C[C@@]1(CCCc2cc(Cl)ccc21)CO3

>  <measured result>
-1.01

$$$$
>  <compound>
C=C(F)C[C@]1(O)/C=C/C[C@H](C)[C@@H](C)S(=O)(=O)NC(=O)c2ccc3c(c2)N(C[C@@H]2CC[C@H]21)C[C@@]1(CCCc2cc(Cl)ccc21)CO3

>  <measured result>
0.19

$$$$

[Q] Any idea what its log10 IC50 is? The compound is C[C@@H]1[C@@H](C)C/C=C/[C@](O)(CC(=O)OCC2(C)COC2)[C@@H]2CC[C@H]2CN2C[C@@]3(CCCc4cc(Cl)ccc43)COc3ccc(cc32)C(=O)NS1(=O)=O
[A] -0.85

[Q] For C[C@@H]1[C@@H](C)CCC[C@@](O)(CC[S@@+](C)[O-])[C@@H]2CC[C@H]2CN2C[C@@]3(CCCc4cc(Cl)ccc43)COc3ccc(cc32)C(=O)NS1(=O)=O , what is its reported log10 IC50?
[A] 0.70

* * *

# system: recombinant human Mcl-1 (residues 171-327) / Bim interaction (Homo sapiens (Human), UniProt Q07820)
# method summary: biochemical
# Format: binding
# protocol conditions: 0.1 nM Mcl-1(171-327), 0.05 nM biotin-Bim (51-76); read-out: Mcl-1 HTRF IC50
experimental readout: IC50 (nM)
Answer in nM, number only, no unit symbol.

Record excerpt, results attached:
>  <compound>
CO[C@@]1(CN2CCN(C3(C#N)COC3)CC2)/C=C/C[C@H](C)[C@@H](C)S(=O)(=O)NC(=O)c2ccc3c(c2)N(C[C@@H]2CC[C@H]21)C[C@@]1(CCCc2cc(Cl)ccc21)CO3 [Example 272]

>  <result unit>
nM

>  <measured result>
0.144

$$$$
>  <compound>
CO[C@@]1(CN2CCN3CCOC[C@@H]3C2)/C=C/C[C@H](C)[C@@H](CCN2CCOCC2)S(=O)(=O)NC(=O)c2ccc3c(c2)N(C[C@@H]2CC[C@H]21)C[C@@]1(CCCc2cc(Cl)ccc21)CO3 [Example 361]

>  <result unit>
nM

>  <measured result>
0.101

$$$$
>  <compound>
CO[C@@]1(CN2CCN3CCOC[C@@H]3C2)/C=C/C[C@H](C)[C@@H](CCO)S(=O)(=O)NC(=O)c2ccc3c(c2)N(C[C@@H]2CC[C@H]21)C[C@@]1(CCCc2cc(Cl)ccc21)CO3 [Example 346]

>  <result unit>
nM

>  <measured result>
0.062

$$$$

Continue with the compound presented below.
[Q] # input compound: CCO[C@]1(CN2CCN(C3COC3)CC2)/C=C/[C@H](C)[C@H](C)CS(=O)(=O)NC(=O)c2ccc3c(c2)N(C[C@@H]2CC[C@H]21)C[C@@]1(CCCc2cc(Cl)ccc21)CO3 [Example 166] ; wanted: its IC50
[A] 0.107
